# Run Description: physchem
# Condition Context: water
Property Measured: solubility

[
  {
    "Compound": "COC(=O)Nc1nc2cc(C(N)c3ccc(F)cc3)ccc2[nH]1.Cl.Cl (racemic) [Example 2]",
    "Property Measured": "solubility",
    "Val": "> 50 mg/mL"
  }
]

All values here come from patent US5278181A.
